System: DU145/Pac200 cancer stem cell population
Type: cell-based, human
Setup Conditions: read-out: IC50, colony forming capability
Property Measured: pIC50
pIC50 (log units): -log10 of the concentration in mol/L.

Item O=[As][O-].[Na+] [KML001, sodium meta arsenite] ; assay system DU145/Pac200 cancer stem cell population; pIC50 reported as 5.22

----------
System: DU145/Pac200 (paclitaxel resistant) cells
Experiment Summary: MTT proliferation assay, DU145/Pac200
Type: cell-based, human
Setup Conditions: DU145/Pac200, standard MTT; read-out: IC50 of cisplatin
Method: Cell Lines: DU145 wt, DU145/Pac200 and DU145/Doc50 cells were provided by Dr. Hussain, UMGCC, University of Maryland. […] MTT Proliferation Assay: Exponentially growing cells were harvested and plated in 96-well plates (1,500/well for DU145 wt, and 2,000-3,000/well for DU145/Pac200 and DU145/Doc50). […] The conversion of MTT to purple formazan by viable cells was measured using a Synergy2 plate reader at 550 nm and Gen5 software. […]
Property Measured: pIC50
Friendly reminder that pIC50 comes from taking -log10 of the concentration in mol/L.

Per the record, N.N.[Cl][Pt][Cl] [cisplatin] has pIC50 of 5.52

----------
System: prostate cancer cell lines (taxane-resistant, androgen resistant and parental)
Experiment Summary: MTT assay across the panel of prostate cancer cell lines
Assay type: cell-based, human
Setup Conditions: taxane-resistant, androgen resistant and hormone responsive parental lines; read-out: IC50's across all prostate cancer cell lines
Property Measured: IC50

// IC50 lookup, compound = O=[As][O-].[Na+] [KML001, sodium meta arsenite] , result: 1 to 6 µM

----------
System: LnCaP cells
Type: cell-based, human
Setup Conditions: read-out: IC50 KML001
Property Measured: IC50
Remember to follow the number with its unit.

Documented IC50 of O=[As][O-].[Na+] [KML001, sodium meta arsenite] : 4 µM
